pIC50: −log10 of the molar value.
# Human immunodeficiency virus type 1 protease (Human immunodeficiency virus 1): pIC50 values follow
observable: pIC50

CC(C)CCNC(=O)N(C[C@@H](O)[C@H](Cc1ccccc1)NC(=O)[C@H](CC(N)=O)NC(=O)c1ccc2ccccc2n1)C(C)(C)C
8.52

A = CC(C)(C)NC(=O)[C@@H]1C[C@@H]2CCCC[C@@H]2CN1C[C@@H](O)[C@H](Cc1ccccc1)NC(=O)[C@H](CC(N)=O)NC(=O)OCc1ccccc1
B = CC[C@H](C)[C@H](NC(=O)[C@@H](C(C)C)C(O)C(O)[C@H](CC1CCCCC1)NC(=O)[C@H](Cc1c[nH]cn1)NC(=O)COc1ccccc1)C(=O)NCc1ccccn1 (stereo partly specified)
Input line: Lab note: record which item had the higher pIC50, A or B . Give the chosen item's label as your response.
Output line: B
(B: 8.35, A: 6.50)

###

pIC50: −log10 of the molar value.
# Human immunodeficiency virus type 1 protease (Human immunodeficiency virus 1): pIC50 values follow
observable: pIC50

CC[C@H](C)CNC(=O)[C@@H](C(C)C)C(O)C(O)[C@H](Cc1c[nH]cn1)NC(=O)COc1ccccc1 (some centres undefined)
6.09

A = C[C@@H](NC(=O)N(C[C@@H](O)[C@H](Cc1ccccc1)NC(=O)[C@H](CC(N)=O)NC(=O)OCc1ccccc1)C(C)(C)C)c1ccccc1
B = CCCN(C[C@@H](O)[C@H](Cc1ccccc1)NC(=O)[C@H](CC(N)=O)NC(=O)OCc1ccccc1)C(=O)NCC(C)C
Input line: Identify the entry with the smaller pIC50: A or B . Give the chosen item's label as your response.
Output line: A

###

Target: Human immunodeficiency virus type 1 protease (Human immunodeficiency virus 1, UniProt Q72874)
pIC50: −log10 of the molar value. Non-standard residues stand in square brackets, D forms with d. Residues, ends and D or L forms follow the SMILES beside them. Sta = CC(C)C[C@H](N)[C@@H](O)CC(=O)O
observable: pIC50

Example results:
CC[C@H](C)[C@H](NC(=O)[C@@H](CC1CCCCC1)C(O)C(O)[C@H](CC1CCCCC1)NC(=O)[C@H](Cc1c[nH]cn1)NC(=O)COc1cccc2ccccc12)C(=O)NCc1ccccn1 (some centres not stated)
7.23
CC(C)CNC(=O)N(C[C@@H](O)[C@H](Cc1ccccc1)NC(=O)[C@H](CC(N)=O)NC(=O)OCc1ccccc1)C(C)C
6.58
CC[C@H](C)[C@H](NC(=O)[C@@H]1C[C@@H]2CCCC[C@@H]2CN1C[C@@H](O)[C@H](Cc1ccccc1)NC(=O)[C@H](CC(N)=O)NC(=O)OCc1ccccc1)C(=O)N[C@H](C(=O)OC)C(C)C
6.50
CC(C)(C)OC(=O)[C@@H]1CCCN1C[C@H](O)[C@H](Cc1ccccc1)NC(=O)[C@H](CC(N)=O)NC(=O)c1ccc2ccccc2n1
7.64
CC[C@H](C)[C@H](NC(=O)[C@@H](C(C)C)C(O)C(O)[C@H](Cc1c[nH]cn1)NC(=O)COc1ccccc1)C(=O)NCc1ccccn1 (some centres not stated)
7.95

I = C[C@H](NC(=O)N(C[C@@H](O)[C@H](Cc1ccccc1)NC(=O)[C@H](CC(N)=O)NC(=O)OCc1ccccc1)C(C)(C)C)c1ccccc1
II = CC[C@H](C)[C@H](N)C(=O)N[C@@H](CCC(N)=O)C(=O)N[C@@H](CC(C)C)[C@@H](O)CC(=O)N[C@@H](CC(N)=O)C(=O)N[C@@H](Cc1ccccc1)C(=O)N[C@@H](CO)C(=O)O (H-IQ[Sta]NFS-OH)
Input line: Identify the entry with the smaller pIC50: I or II . Give the chosen item's label as your response.
Output line: II
(II: 4.92, I: 5.29)

###

Starred links: 1 amine or outer side, 2 acyl side, 3 side chain; linkers in the order of their positions; H or OH if unused. Non-standard residues stand in square brackets, D forms with d. Residues, ends and D or L forms follow the SMILES beside them. Phe(ψ(S)CH(OH)CH2N)Pro = O=C([C@@H]1CCCN1C[C@H](O)[C@H](Cc1ccccc1)N[*:1])[*:2]
# UniProt:Q72874: IC50 values follow
observable: IC50 (nM)

CC(C)CNC(=O)N(C[C@@H](O)[C@H](Cc1ccccc1)NC(=O)[C@H](CC(N)=O)NC(=O)c1ccc2ccccc2n1)C(C)(C)C
6.01
CC[C@H](C)[C@H](NC(=O)[C@@H](C(C)C)C(O)C(O)[C@H](CC(C)C)NC(=O)[C@H](Cc1c[nH]cn1)NC(=O)[C@H](Cc1ccccc1)NC(=O)OC(C)(C)C)C(=O)NCc1ccccn1 (some centres undefined)
63
CCN(C[C@@H](O)[C@H](Cc1ccccc1)NC(=O)[C@H](CC(N)=O)NC(=O)OCc1ccccc1)C(=O)NCC(C)C
330
CC(C)(C)NC(=O)[C@@H]1C[C@@H]2CCCC[C@@H]2CN1C[C@H](O)[C@H](Cc1ccccc1)NC(=O)[C@H](CC(N)=O)NC(=O)OCc1ccccc1
2.7
COC(=O)[C@@H](NC(=O)[C@H](CC(C)C)NC(=O)[C@@H]1CCCN1C[C@H](O)[C@H](Cc1ccccc1)NC(=O)[C@H](CC(N)=O)NC(=O)OC(C)(C)C)C(C)C
849
CC[C@H](C)[C@H](NC(=O)[C@@H](C(C)C)C(O)C(O)[C@H](CC1CCCCC1)NC(=O)[C@H](Cc1c[nH]cn1)NC(=O)COc1cccc2ccccc12)C(=O)NCc1ccccn1 (some centres undefined)
1.8
COC(=O)[C@@H](NC(=O)[C@H](CC(C)C)NC(=O)[C@@H]1CCCN1C[C@H](O)[C@H](Cc1ccccc1)NC(=O)[C@H](CC(N)=O)NC(=O)[C@H](CC(C)C)NC(=O)[C@H](CO)NC(C)=O)C(C)C (Ac-SLN[Phe(ψ(S)CH(OH)CH2N)Pro]LV-OMe)
65
CC[C@H](C)[C@H](NC(=O)[C@@H]1CCCN1CC(O)[C@H](Cc1ccccc1)NC(=O)[C@H](CC(N)=O)NC(=O)c1ccc2ccccc2n1)C(=O)N[C@@H](Cc1ccccc1)C(=O)OC (some centres undefined)
2.3
CC(C)(C)OC(=O)N[C@@H](CC(N)=O)C(=O)N[C@@H](Cc1ccccc1)C(O)C[C@@H](Cc1ccccc1)C(=O)N[C@H]1c2ccccc2C[C@H]1O (some centres undefined)
295
CC[C@H](C)[C@H](NC(=O)[C@@H]1CCCN1C[C@@H](O)[C@H](Cc1ccccc1)NC(=O)[C@H](CC(N)=O)NC(=O)OCc1ccccc1)C(=O)N[C@@H](Cc1ccccc1)C(=O)OC
4

I = COC(=O)[C@@H](NC(=O)[C@H](CC(C)C)NC(=O)[C@@H]1CCCN1C[C@@H](O)[C@H](Cc1ccccc1)NC(=O)[C@H](CC(N)=O)NC(=O)OC(C)(C)C)C(C)C
II = CCCCN(C[C@@H](O)[C@H](Cc1ccccc1)NC(=O)[C@H](CC(N)=O)NC(=O)OCc1ccccc1)C(=O)NCC(C)C
Input line: Lab note: record which item had the higher IC50, I or II . Give the chosen item's label as your response.
Output line: II
(II: 942 nM, I: 16 nM)

I = CC(C)(C)N(C[C@@H](O)[C@H](Cc1ccccc1)NC(=O)[C@H](CC(N)=O)NC(=O)c1ccc2ccccc2n1)C(=O)NCC1CCCCC1
II = CC[C@H](C)[C@H](NC(=O)[C@@H]1CCCN1C[C@@H](O)[C@H](Cc1ccccc1)NC(=O)[C@H](CC(N)=O)NC(=O)OCc1ccccc1)C(=O)N[C@H](C(=O)OC)C(C)C
Input line: Lab note: record which item had the higher IC50, I or II . Give the chosen item's label as your response.
Output line: II
(II: 13 nM, I: 5 nM)

1 = CC(C)(C)NC(=O)C1CCCCN1C[C@H](O)[C@H](Cc1ccccc1)NC(=O)C(CC(N)=O)NC(=O)c1ccc2ccccc2n1 (some centres undefined)
2 = CC(C)CNC(=O)N(C)C[C@@H](O)[C@H](Cc1ccccc1)NC(=O)[C@H](CC(N)=O)NC(=O)OCc1ccccc1
Input line: Lab note: record which item had the higher IC50, 1 or 2 . Give the chosen item's label as your response.
Output line: 2
(2: 1500 nM, 1: 2 nM)

1 = CC[C@H](C)[C@H](NC(=O)[C@@H]1CCCN1CC(O)[C@H](Cc1ccccc1)NC(=O)[C@H](CC(N)=O)NC(=O)OCc1ccccc1)C(=O)N[C@H](C(=O)OC)C(C)C (some centres undefined)
2 = CC[C@H](C)[C@H](NC(=O)[C@@H](C(C)C)C(O)C(O)[C@H](CC1CCCCC1)NC(=O)[C@H](Cc1c[nH]cn1)NC(=O)CN)C(=O)NCc1ccccn1 (some centres undefined)
3 = CC(C)(C)NC(=O)[C@@H]1CCCN1C[C@H](O)[C@H](Cc1ccccc1)NC(=O)[C@H](CC(N)=O)NC(=O)OCc1ccccc1
4 = CC(C)(C)OC(=O)[C@@H]1CCCN1C[C@H](O)[C@H](Cc1ccccc1)NC(=O)OCc1ccccc1
Input line: Put the compounds in ascending order of IC50. Record the ranking as a list of labels in the requested order.
Output line: 2, 3, 1, 4

P = CC(C)(C)NC(=O)C1CCCCN1C[C@H](O)[C@H](Cc1ccccc1)NC(=O)C(CC#N)NC(=O)OCc1ccccc1 (some centres undefined)
Q = CC(C)(C)N(C[C@@H](O)[C@H](Cc1ccccc1)NC(=O)[C@H](CC(N)=O)NC(=O)OCc1ccccc1)C(=O)NCc1ccncc1
Input line: Identify the entry with the smaller IC50: P or Q . Give the chosen item's label as your response.
Output line: P
(P: 23 nM, Q: 105 nM)
